Assay: protein stability index of a GFP-peptide fusion (GPS, HEK-293T) (PSI 1-6); higher = more stable;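 also: 24-mer peptide tiles fused after GFP, lentivirally expressed, FACS-sorted into six equal bins by GFP/DsRed ratio, decoded by Illumina sequencing, PSI is the read-weighted mean bin number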
Settings: treatment: MLN4924 1 uM, 8 h; c terminus: native
Measured protein stability index of individual entries
readout.label: protein stability index

>  <residue.codes>
PYDLHLRSQSLTMQDELNAVFHN [NEUROD6]

>  <readout.label>
protein stability index

>  <reported>
3.71

$$$$
>  <residue.codes>
EDDKLVVECVMKGVTSTRVYERA [FABP4]

>  <readout.label>
protein stability index

>  <reported>
3.75

$$$$
>  <residue.codes>
SLIEDSQALHKRPKLDSEYYCFG [LURAP1L]

>  <readout.label>
protein stability index

>  <reported>
3.11

$$$$
>  <residue.codes>
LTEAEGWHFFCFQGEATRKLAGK [SAT2]

>  <readout.label>
protein stability index

>  <reported>
3.02

$$$$
>  <residue.codes>
AIFIMSLNKRHSSGDGNSKLKSE [MFSD9]

>  <readout.label>
protein stability index

>  <reported>
2.22

$$$$
>  <residue.codes>
RDRVGHKSIPMRNLRARPAKCLS [SERPINB5]

>  <readout.label>
protein stability index

>  <reported>
2.48

$$$$
>  <residue.codes>
IANCKLFRLQLQQGLFRIRVHSP [GAN]

>  <readout.label>
protein stability index

>  <reported>
2.6

$$$$
>  <residue.codes>
SSPGNNNGTSIEDGQIPEIIFYT [BTBD1]

>  <readout.label>
protein stability index

>  <reported>
3.44

$$$$
>  <residue.codes>
PEPPPVSFQPYHPLHFRGSNGMS [TENT5D]

>  <readout.label>
protein stability index

>  <reported>
3.91

$$$$
>  <residue.codes>
DGDKNNDGRIDFDEFLKMMEGVQ [TNNC2]

>  <readout.label>
protein stability index

>  <reported>
4.54

$$$$
>  <residue.codes>
SSEEGWRLFKIDKEYLLKMATEE [SAT1]

>  <readout.label>
protein stability index

>  <reported>
2.88

$$$$
>  <residue.codes>
WPGASGSAQSLDRLGIMGAGLGA [ATP23]

>  <readout.label>
protein stability index

>  <reported>
2.43

$$$$
>  <residue.codes>
FRPEMKKHSWCLKRKNPPNERTV [N4BP2L1]

>  <readout.label>
protein stability index

>  <reported>
3.04

$$$$
>  <residue.codes>
PDMSVTKVVVHKETEITPEDGED [EPB41L3]

>  <readout.label>
protein stability index

>  <reported>
5.57

$$$$
>  <residue.codes>
LANLSRTQLLHLGLTQGLIERLK [KLHDC10]

>  <readout.label>
protein stability index

>  <reported>
2.35

$$$$
>  <residue.codes>
CKNSNTVYCKLESCPSRGQGKPS [SPRY1]

>  <readout.label>
protein stability index

>  <reported>
3.97

$$$$

// data source = the supplement of paper PMC10567573
